// folding stability dG unfold lookup, one value per entry
- ASSAY NAME: folding stability dG unfold from trypsin proteolysis; higher = more stable
# output: bare number, implied unit kcal/mol

In: Could you tell me which folding stability dG unfold is on file for SAGGSAGGSKRKIKVDDVEPPPNGFMRVTLEVDDGKPLVPINIPPGQTPSEVKDQVKDLVEELSAGGSAGGS [r12_798_TrROS] ?
Out: 3.86

In: Next entry: SAGGSAMEIDIDPEKNEIRIYNPWNGQPHPFTIESIEPIDPDNKYFKFKIKYPDTGKEMPFMVQIDSAGGSA [r15_209_TrROS]
Out: 0.57

In: Next entry: SAGGSAGGSAGGKKTLVIEFDLEPGGLTAEEIEELLRPYTGKEVRLETHPDGKPVAVVEGSAGGSAGGSAGG [r7_330_TrMRF]
Out: -0.488

In: Next entry: SAGGSAGGSAGKKTVVIKDAEIVEVEEENGYLKVRIKVTNPDGSEEEFTFTFKPGDVIELSAGGSAGGSAGG [r11_211_TrROS_Hall]
Out: 2.01

In: Next entry: SAGKKPKVIEKTITIKVYDKKTKKEYEIKIKVRVVKKDGKVIEEFSEEEAKELAKKLAEELKKNKNIKPSAG [r5_426_TrROS_Hall]
Out: 1.81

In: Next entry: SAGGSAGGGSSITPVEVTPLPEDKYRVLIRITTYLPGGKPRTEEIEVEMPPDETAEEAAARVLSSAGGSAGG [r6_329_JUSTAS]
Out: 0.341

In: Next entry: SAGGSAGGSAGGMVVRVTKNGTSTEIIVDSEEEAKELLKPLFPDDSEVEIEFVSEEELSSAGGSAGGSAGGS [r10_1167_JUSTAS]
Out: 0.0397
